Data origin, for the record: the supplement of paper PMC10567573

Assay: protein stability index of a GFP-peptide fusion (GPS, HEK-293T) (PSI 1-6); higher = more stable;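 also: 24-mer peptide tiles fused after GFP, lentivirally expressed, FACS-sorted into six equal bins by GFP/DsRed ratio, decoded by Illumina sequencing, PSI is the read-weighted mean bin number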
Conditions: treatment: DMSO; c terminus: a fixed tail appended
recorded_metric: protein stability index

[[record]]
chain_sequence = "AHRGRLNIQAGINENDFYDGAWCA [CPXM2]"
result = 3.34

[[record]]
chain_sequence = "SPFSGSLHAPPAFYSTSSGLANGL [VENTX]"
result = 2.89

[[record]]
chain_sequence = "RKSSKLIMELTGGGQESSGLNLGK [MYOZ1]"
result = 3.72


// query Which protein stability index is listed for VEVDENAYRCGSGMQMAEDSKSLK [NET1] ?
// result 4.98

// query Which protein stability index is listed for STLVEVTLGEVPAAESPDPPQSPQ [MAGEA3] ?
// result 5.39
